Data credit: PubChem BioAssay AID1851

- Tested Target: Cytochrome P450 1A2 (Homo sapiens) (UniProt P05177)
- Sequence (P05177 whole entry, looked up): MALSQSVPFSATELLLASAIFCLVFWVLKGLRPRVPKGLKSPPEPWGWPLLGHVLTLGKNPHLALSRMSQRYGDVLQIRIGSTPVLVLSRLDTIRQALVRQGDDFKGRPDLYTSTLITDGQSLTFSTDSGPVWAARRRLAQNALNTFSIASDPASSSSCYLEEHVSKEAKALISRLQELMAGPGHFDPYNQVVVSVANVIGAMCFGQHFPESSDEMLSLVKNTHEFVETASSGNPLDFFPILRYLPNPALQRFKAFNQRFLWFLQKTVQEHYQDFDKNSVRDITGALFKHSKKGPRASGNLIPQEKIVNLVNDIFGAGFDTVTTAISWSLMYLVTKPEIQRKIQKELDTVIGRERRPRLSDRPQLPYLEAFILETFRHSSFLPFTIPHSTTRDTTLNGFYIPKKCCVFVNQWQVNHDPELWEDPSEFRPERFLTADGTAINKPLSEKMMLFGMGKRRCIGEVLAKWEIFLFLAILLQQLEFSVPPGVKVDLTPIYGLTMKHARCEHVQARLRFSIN
- Procedure Summary: Cytochrome panel assay with activity outcomes
- Experimental Parameters: recombinant CYP, pro-luciferin dealkylation, luminescence, p450-cyp1a2; series mostly up to 57.1 µM
Hit rate of the full screen: of about 16,000 compounds, about 5,700 (36%) were called active. Another 24% or so got no clear call; they are omitted. Calls follow the shape of the dose curve; as a rule, active = well fitted curve in the direction sought with a large enough effect; inconclusive = small, poorly fitted or top-dose-only effect, or effect the other way; inactive = no such curve, though single readings can be large or run the other way. The list shows a part of the results.
Labels: true = active, false = inactive

| Compound | Discrete Label |
| --- | --- |
| O=c1c(-c2ccc(F)cc2)nc2cnc(Oc3cccc(Cl)c3)nc2n1C1CC1 | true |
| CCOc1cc(C)c(S(=O)(=O)Nc2ccc3cn[nH]c3c2)cc1C | true |
| COc1ccc(-n2nc(C(=O)NCC(=O)Nc3ccccn3)c3ccccc3c2=O)cc1 | false |
| O=c1c(-c2ccccc2)nc2cnc(Oc3cccc(Cl)c3)nc2n1C1CC1 | true |
| c1ccc2cc(C3=NCCN3)ncc2c1 | true |
| c1ccc(-c2ccc3c(c2)c2c4n3CCN=C4CCC2)cc1 | true |
| N#CCCn1c(=O)c(-c2cccc(C#N)c2)nc2cnc(Oc3cccc(Cl)c3)nc21 | false |
| CS(=O)(=O)N1CCC2(CC1)CN(C(=O)Nc1ccccc1)C2 | false |
| CCCc1cc2c(cc1NC(=O)c1ccccc1Cl)OCO2 | true |
| COc1ccc2nc(SCC(=O)c3ccco3)[nH]c2c1 | true |
| O=C(c1cnn(-c2ccccc2)c1)c1ccc2ccccc2c1O | true |
| COc1ccccc1CN1CC2(CCN(S(=O)(=O)c3ccccc3)CC2)C1 | false |
| COCC(=O)Nc1c(I)c(C(=O)NC[C@@H](O)CO)c(I)c(C(=O)N(C)C[C@@H](O)CO)c1I | false |
| S=C(NCCSCc1c(Cl)cccc1Cl)Nc1ccccc1 | true |
| Cc1cc(=O)[nH]c(-n2[nH]c(C)cc2=O)n1 | false |
| COc1ccccc1N1CCN(C(=O)/C=C/c2ccc3c(c2)OCO3)CC1 | true |
| N#Cc1cccc(-c2nc3cnc(Oc4cccc(Cl)c4)nc3n(C3CC3)c2=O)c1 | true |
| O=C(Nc1nnc(CCS(=O)(=O)c2ccc(Br)cc2)s1)c1ccc([N+](=O)[O-])cc1 | false |
| N#Cc1c(-c2ccccc2)no[n+]1[O-] | true |
| COc1ccccc1N1CCN(Cc2cc(=O)n3ccsc3n2)CC1 | false |
| O=S(Cc1cc(Oc2ccccc2)nc(-c2ccccc2)n1)c1ccccc1 (centres undefined) | true |
| Cc1c(C)n(C)c2ccc(C(=O)Nc3cccc4ccccc34)cc12 | true |
| CCc1nc2cc(CC(=O)O)ccc2o1 | false |
| Cc1ccc(C2C(C=Nc3c(C)n(C)n(-c4ccccc4)c3=O)=C(c3ccccc3)Oc3ccccc32)cc1 (centres undefined) | false |
| COc1ccc(Oc2c(Cl)cnn(-c3ccccc3)c2=O)cc1 | true |
| CCn1c(C)c(C)c2cc(C(=O)Nc3cccc(Cl)c3)ccc21 | true |
| COc1cc(/C=N\NC(=O)C2C(=O)NCC2c2ccccc2)cc(OC)c1O (centres undefined) | false |
| C=CCC(C(=O)OC)(C(=O)OC)c1ccc([N+](=O)[O-])cn1 | false |
| CCN(CC)C(=O)c1sc2[nH]c(=S)n(-c3ccccc3)c(=O)c2c1C | false |
| COC(=O)C(C)(C(=O)OC)c1ccc([N+](=O)[O-])cn1 | false |
| CCCc1cc2c(cc1NC(=O)c1ccccc1C)OCO2 | true |
| Cc1ccc2cc(C(=O)O)c(C)nc2c1 | false |
| Fc1ccc(CSc2nnc(-c3cc4c(s3)-c3ccccc3CC4)o2)cc1 | true |
| COc1ccccc1-c1c(C(F)(F)F)oc2cc(OC(=O)c3cccc([N+](=O)[O-])c3C)ccc2c1=O | false |
| COc1c2occc2c(OC)c2c(=O)cc(C)oc12 | true |
| c1ccc(-c2n[nH]c(-c3ccccc3)c2-c2nc3ccccc3[nH]2)cc1 | true |
| Nc1c(N=Nc2cccc(Cl)c2)c(=O)[nH]n1-c1ccccc1 | true |
| CCCN(C(=O)Cc1nc(N)n[nH]1)C1(C(=O)Nc2ccccc2C)CCCCC1 | false |
| O=C(COc1ccc([N+](=O)[O-])cc1)Nc1ccc(C(=O)NCc2cccnc2)cc1 | false |
| Cc1cccc(C)c1NC(=O)C(c1ccccc1)N1CCC1=O (centres undefined) | false |
| c1ccc(CN(CC2=NCCN2)c2ccccc2)cc1 | false |
| O=S(=O)(Cc1cc(Oc2ccccc2)nc(-c2ccccc2)n1)c1ccccc1 | true |
| CCOCCCN1C(=O)CN(C2CCCCC2)C(=O)C1c1ccc(OCC)c(OC)c1 (centres undefined) | false |
| O=c1oc2cc(Oc3ccc(C(F)(F)F)cc3[N+](=O)[O-])ccc2c2c1CCCC2 | false |

====

- Tested Target: Cytochrome P450 1A2 (Homo sapiens) (UniProt P05177)
- Procedure Summary: Cytochrome panel assay with activity outcomes
- Experimental Parameters: recombinant CYP, pro-luciferin dealkylation, luminescence, p450-cyp1a2; series mostly up to 57.1 µM
The whole screen tested about 16,000 compounds, of which about 5,700 (36%) were called active. Inconclusive results (about 24%) are left out. The call rests on the fitted dose curve; in most records, active means well fitted curve in the direction sought with a large enough effect; inconclusive means small, poorly fitted or top-dose-only effect, or effect the other way; inactive means no such curve, though single readings can be large or run the other way. Some of the results follow.
Classes used: 1 (yes) (active), 0 (no) (inactive)

| Compound | Discrete Label |
| --- | --- |
| CC(N)=NCCCC[C@H](N)C(=O)O | 0 (no) |
| O=C(c1ccco1)N1CCC[C@@]2(CCN(Cc3nccs3)C2)C1 | 0 (no) |
| CCc1c2c(nc3cccc(C(C)C)c13)-c1cccc(=O)n1C2 | 1 (yes) |
| CC(=O)c1ccc(OC(=O)C2c3ccccc3Oc3ccccc32)cc1 | 1 (yes) |
| CCCCn1c(SC(C)C(N)=O)nc2cc(C(=O)OC)ccc2c1=O (stereo unspecified) | 1 (yes) |
| Cc1ccc(-c2csc(N3CCC(NS(=O)(=O)c4ccc5c(c4)OCCO5)CC3)n2)cc1 | 1 (yes) |
| COc1cc(C(=O)N2CCC(NC(=O)C(Cc3ccc(C(C)C)cc3)NC(C)=O)CC2)cc(OC)c1OC (stereo unspecified) | 0 (no) |
| O=C(c1n[nH]c(=O)c2ccccc12)N1CCN(C2c3ccccc3-c3ccccc32)CC1 | 1 (yes) |
| O=C(O)/C=C1\NC(=O)c2ccccc21 | 0 (no) |
| Nc1ccc2c3c(cccc13)C(=O)NC2=O | 1 (yes) |
| CN1CCCN(S(=O)(=O)c2ccc3c(c2)OCCO3)CC1 | 0 (no) |

====

- Tested Target: Cytochrome P450 1A2 (Homo sapiens) (UniProt P05177)
- Procedure Summary: Cytochrome panel assay with activity outcomes
- Experimental Parameters: recombinant CYP, pro-luciferin dealkylation, luminescence, p450-cyp1a2; series mostly up to 57.1 µM
The campaign covered roughly 16,000 compounds. About 5,700 (36%) were called active. Roughly 24% stayed inconclusive and do not appear here. Calls come from the whole dose curve; as a rule, active = well fitted curve in the direction sought with a large enough effect; inconclusive = small, poorly fitted or top-dose-only effect, or effect the other way; inactive = no such curve, though single readings can be large or run the other way. Some of the results follow.
Possible outcomes: active, inactive

| Compound | Discrete Label |
| --- | --- |
| O=C1OC2CC3CC1CC(O)(C3)C2 (configuration not stated) | inactive |
| CCN(CC)C[C@@H](O)c1ccc2ccc3ccccc3c2c1 | active |
| C=CCOC(=O)/C(=C\c1cccc2ccccc12)NC(=O)c1ccccc1 | active |
| Cc1ccc(-c2[nH]n3c(=O)c4c(nc3c2C)CCCC4)cc1 | active |
| CNCCNS(=O)(=O)c1cccc2cnccc12 | inactive |
| CCN(CC)c1ccc(NC(=O)CSc2nnc3nc(C)cc(C)n23)cc1 | inactive |
| Cc1ccnc2nc(C(=O)OCC(=O)Nc3ccc4c(c3)OC(F)(F)O4)nn12 | active |
| COc1cc([C@H](O)C(=O)O)ccc1O | inactive |
| O=C(Cn1cnc2ccccc2c1=O)Nc1nnc(SCc2ccccc2)s1 | inactive |
| Cc1ccccc1-c1nc(N(C)Cc2ccco2)c2ccccc2n1 | active |
| CCC(C)(C(=O)NC1CCCC1)N(Cc1ccco1)C(=O)c1ccccn1 (configuration not stated) | inactive |
| CCCCCCCCCCCCCC(=O)O[C@H](CC(=O)O)C[N+](C)(C)C | inactive |
| O=C(c1cc(C(F)(F)F)cc(C(F)(F)F)c1)N1CCC2(CC1)CCN(c1ccccn1)CC2 | inactive |
| O=C(c1cccc(F)c1)N1CCC2(CCN(Cc3cc(C(F)(F)F)cc(C(F)(F)F)c3)CC2)CC1 | inactive |
| Cc1cc(S(=O)(=O)NCCCN2CCOCC2)ccc1F | inactive |
| CN(Cc1ccco1)c1nc(-c2ccccc2C(F)(F)F)nc2ccccc12 | active |
| COc1ccc(C(=O)NN)cc1COc1ccc(Br)cc1 | active |
| Cc1ccc(C(=O)N2CCN(c3ccc(C(F)(F)F)cn3)CC2)cc1 | active |
| Brc1[nH]nc2ccccc12 | active |
| O=C(O)CC(O)C(=O)O (configuration not stated) | inactive |
| Cc1ccc(CC(=O)N2CCN(c3cccc(C(F)(F)F)c3)CC2)cc1 | active |
| CCCCC1(C)Nc2ccccc2-c2nc3ccccc3n21 (configuration not stated) | active |
| CN(Cc1ccco1)c1ccnc(-c2ccccc2C(F)(F)F)n1 | active |
| O=c1c2c(nc3c(-c4ccccc4)c[nH]n13)CCC2 | active |
| CCN(c1ccccc1)S(=O)(=O)c1ccc(NC(=S)NC(=O)c2ccc(Br)o2)cc1 | inactive |
| CN(C)S(=O)(=O)c1cccc(NC(=O)COC(=O)c2ccc(Br)o2)c1 | active |
| CCn1c2ccccc2c2cc(NS(=O)(=O)c3ccccc3C)ccc21 | active |
| COc1ccc(/C=C2\SC(=O)N(CCNC(=O)C3CC(=O)N(c4ccccc4)C3)C2=O)cc1 (configuration not stated) | inactive |
| O=S1(=O)C=C(N2CCOCC2)c2ccccc21 | active |
| N#CC(=C(/N)Sc1ccccc1N)/C(C#N)=C(/N)Sc1ccccc1N | active |
| N#Cc1c[nH]n2c(=O)c3c(nc12)CCCC3 | inactive |
| Cc1nnc(N(C)C(=O)c2ccccn2)s1 | inactive |
| Cc1ccc2nc(NC(=O)COC(=O)CSc3nc(C)cc(C)n3)sc2c1 | active |
| Cc1ccc(C(c2ccc(C)o2)c2cccc([N+](=O)[O-])c2O)o1 | active |
| NC(=O)N[C@H]1NC(=O)NC1=O | inactive |
| CCOC(=O)C1=C(C)NC2(O)c3ccccc3C(=O)C12O (configuration not stated) | active |
| CCC1(C)Nc2ccccc2C(=O)N1O (configuration not stated) | inactive |
| O=C(c1ccc(Oc2ccc(C(F)(F)F)cn2)cc1)N1CCN(c2ccccc2)CC1 | inactive |
| COc1cc(CC(=O)O)ccc1O | inactive |
| Cc1cc(Oc2ccccc2)nc(NCc2ccccc2)n1 | active |
| COc1ccc(/C=C/C(=O)NCc2cn(C)nc2C)cc1COc1ccc(Br)cc1 | inactive |
| O=C(c1cc(C(F)(F)F)cc(C(F)(F)F)c1)N1CCC2(CC1)CN(c1ccccc1)C2 | inactive |
| Nc1[nH]n2c(=O)c3c(nc2c1N=Nc1ccccc1)CCCC3 | active |
| CC(=O)N(C)c1nnc(-c2cnccn2)s1 | active |
| CC1Cc2ccccc2N1Cc1nc2cc(C(F)(F)F)ccc2c(=O)[nH]1 (configuration not stated) | active |
| Cc1cc(C)n(-c2nc(NCC(C)O)c3c4c(sc3n2)COC(C)(C)C4)n1 (configuration not stated) | active |
| C/C(CC(=O)NCCCN1CCOCC1)=N\NC(=O)COc1ccc(Cl)cc1 | active |
